- experiment-notes: Fraction unbound in Beagle dog brain homogenates at 1 uM after 6 hrs by equilibrium dialysis method
- experimental-context: brain homogenate
For each record, check the reported fraction unbound at 6 h, 1 µM: if it is below 0.1 write fulfilled, else write not fulfilled.

{"columns": ["molecule", "classification"],
 "data": [
  ["NC(=O)N1c2ccccc2C=Cc2ccccc21 [CARBAMAZEPINE]", "not fulfilled"],
  ["C[C@@H](O[C@H]1OCCN(Cc2n[nH]c(=O)[nH]2)[C@H]1c1ccc(F)cc1)c1cc(C(F)(F)F)cc(C(F)(F)F)c1 [APREPITANT]", "fulfilled"],
  ["CN1[C@@H]2CC[C@H]1C[C@@H](OC(=O)c1c[nH]c3ccccc13)C2 [TROPISETRON]", "fulfilled"],
  ["CO[C@H]1/C=C/O[C@@]2(C)Oc3c(C)c(O)c4c(O)c(c(/C=N/N5CCN(C)CC5)c(O)c4c3C2=O)NC(=O)/C(C)=C\\C=C\\[C@H](C)[C@H](O)[C@@H](C)[C@@H](O)[C@@H](C)[C@H](OC(C)=O)[C@@H]1C [RIFAMPIN]", "not fulfilled"],
  ["O=C1CCc2ccc(OCCCCN3CCN(c4cccc(Cl)c4Cl)CC3)cc2N1 [ARIPIPRAZOLE]", "fulfilled"],
  ["CCCCCCCN(CC)CCCC(O)c1ccc(NS(C)(=O)=O)cc1 (centres undefined) [IBUTILIDE]", "not fulfilled"],
  ["Cc1c(C(=O)NN2CCCCC2)nn(-c2ccc(Cl)cc2Cl)c1-c1ccc(Cl)cc1 [RIMONABANT]", "fulfilled"],
  ["CC(CC(c1ccccc1)c1ccccc1)NC(C)(C)C (centres undefined) [TERODILINE]", "not fulfilled"],
  ["CN1Cc2c(N)cccc2C(c2ccccc2)C1 (centres undefined) [NOMIFENSINE]", "fulfilled"]
]}
